test: Surfactant phase behavior study (cross-polarized microscopy); type: physicochemical; details: room temperature
ASSAY ENDPOINT: combined isotropic phases (clear and opaque), share of the total

{"columns": ["MOLECULE", "MEASURED RESULT"],
 "data": [
  ["CCCCCCCCCCOCCOCCOCCO [sat. analog of A10-7]", "about 38%"],
  ["CCCCCCCCCCCCOCCOCCOCCO [sat. analog of A12-7]", "about 38%"]
]}

* * *

Listed below: 1 h separation, amount values for each entry.
test: Emulsion stability testing of nonionic emulsifiers, aromatic solvent series; format: physicochemical; conditions: Bifenthrin 240 g/L in Aromatic 100, 34 ppm water
ASSAY ENDPOINT: 1 h separation, amount (mL)

{"columns": ["COMPOUND", "MEASURED RESULT"],
 "data": [
  ["C=CCCCCCCCCOCCOCCOCCOCCOCCOCCOCCO", 3],
  ["C=CCCCCCCCCOCCOCCOCCO", 7],
  ["CCC=CCCCCCCCCOCCOCCOCCOCCOCCO (mixture of isomers)", 2.3],
  ["CCC=CCCCCCCCCOCCOCCOCCO (mixture of isomers)", 8.8],
  ["CCC=CCCCCCCCCOCCOCCOCCOCCOCCOCCOCCO (mixture of isomers)", 1],
  ["CCC=CCCCCCCCCOCCO (mixture of isomers)", 8],
  ["CCC=CCCCCCCCCOCCOCCOCCOCCOCCOCCOCCOCCOCCOCCOCCOCCOCCOCCOCCO (mixture of isomers)", 5.9],
  ["C=CCCCCCCCCOCCOCCOCCOCCOCCOCCOCCOCCOCCOCCOCCOCCOCCOCCOCCO", 7],
  ["C=CCCCCCCCCOCCO", 7.5]
]}

* * *

assay: Emulsion stability testing of nonionic emulsifiers, aromatic solvent series; assay type: physicochemical; set-up: key: G = good; F = fair; P = poor; conditions: 2,4-D ester 480 g/L in Exxsol D-110, 1000 ppm water

{"columns": ["MOLECULE", "Spon. (spontaneity)"],
 "data": [
  ["CCC=CCCCCCCCCOCCOCCOCCOCCOCCO (mixture of isomers)", "P"],
  ["C=CCCCCCCCCOCCOCCOCCO", "P"],
  ["C=CCCCCCCCCOCCO", "P"],
  ["C=CCCCCCCCCOCCOCCOCCOCCOCCOCCOCCOCCOCCOCCOCCOCCOCCOCCOCCO", "P"],
  ["CCC=CCCCCCCCCOCCO (mixture of isomers)", "P"],
  ["CCC=CCCCCCCCCOCCOCCOCCOCCOCCOCCOCCO (mixture of isomers)", "F"],
  ["CCC=CCCCCCCCCOCCOCCOCCO (mixture of isomers)", "P"],
  ["CCC=CCCCCCCCCOCCOCCOCCOCCOCCOCCOCCOCCOCCOCCOCCOCCOCCOCCOCCO (mixture of isomers)", "P"],
  ["C=CCCCCCCCCOCCOCCOCCOCCOCCOCCOCCO", "F"],
  ["C=CCCCCCCCCOCCOCCOCCOCCOCCO", "P"]
]}

* * *

assay: Surfactant phase behavior study (cross-polarized microscopy); format: physicochemical; settings: room temperature, in deionized water
Listed below: Lamellar phase region values for each entry.
ASSAY ENDPOINT: Lamellar phase region

{"columns": ["COMPOUND", "ASSAY ENDPOINT", "MEASURED RESULT"],
 "data": [
  ["CCCCCCCCCCCCOCCOCCOCCOCCOCCO [sat. analog of A12-10]", "Lamellar phase region", "40-83 % Actives Level"],
  ["C=CCCCCCCCCOCCOCCOCCO [A10-7]", "Lamellar phase region", "20-70 % Actives Level"],
  ["CCCCCCCCCCOCCOCCOCCOCCOCCO [sat. analog of A10-10]", "Lamellar phase region", "55-80 % Actives Level"],
  ["CCCCCCCCCCOCCOCCOCCO [sat. analog of A10-7]", "Lamellar phase region", "28-90 % Actives Level"]
]}

* * *

test: Emulsion stability testing of nonionic emulsifiers, aromatic solvent series; format: physicochemical; details: Tebuconazole 360 g/L in N-methyl-2-pyrrolidone, 1000 ppm water
ASSAY ENDPOINT: 1 h separation, amount (mL)

{"columns": ["COMPOUND", "MEASURED RESULT"],
 "data": [
  ["C=CCCCCCCCCOCCOCCOCCOCCOCCOCCOCCOCCOCCOCCOCCOCCOCCOCCOCCO", 1.2],
  ["CCC=CCCCCCCCCOCCOCCOCCOCCOCCOCCOCCO (mixture of isomers)", 2.4],
  ["CCC=CCCCCCCCCOCCOCCOCCO (mixture of isomers)", 2.6],
  ["C=CCCCCCCCCOCCOCCOCCOCCOCCOCCOCCO", 2.1],
  ["C=CCCCCCCCCOCCOCCOCCOCCOCCO", 2.5]
]}

* * *

experiment: Emulsion stability testing of nonionic emulsifiers, aromatic solvent series; assay type: physicochemical; settings: 2,4-D ester 480 g/L in Exxsol D-110, 34 ppm water
Listed below: 24 h separation, amount values for each entry.
ASSAY ENDPOINT: 24 h separation, amount (mL)

{"columns": ["MOLECULE", "MEASURED RESULT"],
 "data": [
  ["CCC=CCCCCCCCCOCCO (mixture of isomers) [A12-4]", 6.7],
  ["CCC=CCCCCCCCCOCCOCCOCCOCCOCCOCCOCCOCCOCCOCCOCCOCCOCCOCCOCCO (mixture of isomers) [A12-16]", 5.3],
  ["CCC=CCCCCCCCCOCCOCCOCCOCCOCCOCCOCCO (mixture of isomers) [A12-13]", 5],
  ["CCC=CCCCCCCCCOCCOCCOCCOCCOCCO (mixture of isomers) [A12-10]", 3.9],
  ["C=CCCCCCCCCOCCOCCOCCOCCOCCO [A10-10]", 4.1],
  ["CCC=CCCCCCCCCOCCOCCOCCO (mixture of isomers) [A12-7]", 5.5],
  ["C=CCCCCCCCCOCCOCCOCCOCCOCCOCCOCCOCCOCCOCCOCCOCCOCCOCCOCCO [A10-16]", 5],
  ["C=CCCCCCCCCOCCOCCOCCOCCOCCOCCOCCO [A10-13]", 4.6]
]}

* * *

Listed below: 1 h separation, amount values for each entry.
Experiment: Emulsion stability testing of nonionic emulsifiers, aromatic solvent series
Format: physicochemical
Conditions: Tebuconazole 360 g/L in N-methyl-2-pyrrolidone, 1000 ppm water
Method: Nonionic samples contain a low amount of water (<1%) and are prepared as emulsifiable concentrates with three pesticides using two different solvent systems. In the aromatic solvent series, the nonionic sample replaces Toximul® 8240 (castor oil ethoxylate, 36 POE, Stepan), and in the Hallcomid™ (N,N-dimethylcaprylamide/N,N-dimethylcapramide, Stepan) solvent series, the nonionic sample replaces Ninex® MT-630F. […]
ASSAY ENDPOINT: 1 h separation, amount (mL)

{"columns": ["COMPOUND", "UNIT OF MEASUREMENT", "MEASURED RESULT"],
 "data": [
  ["C=CCCCCCCCCOCCOCCOCCO", "mL", 2.5],
  ["CCC=CCCCCCCCCOCCOCCOCCOCCOCCOCCOCCOCCOCCOCCOCCOCCOCCOCCOCCO (mixture of isomers)", "mL", 1.9],
  ["C=CCCCCCCCCOCCO", "mL", 3],
  ["CCC=CCCCCCCCCOCCOCCOCCOCCOCCO (mixture of isomers)", "mL", 2.1],
  ["CCC=CCCCCCCCCOCCO (mixture of isomers)", "mL", 2.3]
]}

* * *

Listed below: Isotropic Clear phase region values for each entry.
assay: Surfactant phase behavior study (cross-polarized microscopy); type: physicochemical; settings: room temperature, in deionized water

{"columns": ["MOLECULE", "Isotropic Clear phase region"],
 "data": [
  ["CCC=CCCCCCCCCOCCOCCOCCO (mixture of isomers)", "74-100 % Actives Level"],
  ["C=CCCCCCCCCOCCOCCOCCOCCOCCO", "0-100 % Actives Level"],
  ["CCCCCCCCCCCCOCCOCCOCCO", "90-100 % Actives Level"],
  ["CCCCCCCCCCOCCOCCOCCO", "90-100 % Actives Level"],
  ["C=CCCCCCCCCOCCOCCOCCOCCOCCOCCOCCO", "0-100 % Actives Level"],
  ["C=CCCCCCCCCOCCOCCOCCO", "70-100 % Actives Level"]
]}

* * *

experiment: Emulsion stability testing of nonionic emulsifiers, aromatic solvent series; assay type: physicochemical; conditions: Tebuconazole 360 g/L in N-methyl-2-pyrrolidone, 1000 ppm water

{"columns": ["COMPOUND", "24 h separation, amount (mL)"],
 "data": [
  ["C=CCCCCCCCCOCCO", 4],
  ["CCC=CCCCCCCCCOCCOCCOCCOCCOCCOCCOCCO (mixture of isomers)", 3.5],
  ["C=CCCCCCCCCOCCOCCOCCO", 3],
  ["C=CCCCCCCCCOCCOCCOCCOCCOCCOCCOCCOCCOCCOCCOCCOCCOCCOCCOCCO", 2],
  ["CCC=CCCCCCCCCOCCOCCOCCOCCOCCO (mixture of isomers)", 3.2],
  ["CCC=CCCCCCCCCOCCOCCOCCO (mixture of isomers)", 3.2],
  ["CCC=CCCCCCCCCOCCO (mixture of isomers)", 2.7],
  ["C=CCCCCCCCCOCCOCCOCCOCCOCCO", 3],
  ["C=CCCCCCCCCOCCOCCOCCOCCOCCOCCOCCO", 3.5],
  ["CCC=CCCCCCCCCOCCOCCOCCOCCOCCOCCOCCOCCOCCOCCOCCOCCOCCOCCOCCO (mixture of isomers)", 3]
]}
